Molecular target: human GLP-1 receptor (human, UniProt P43220 24-463)
Experiment: cell-based or functional assay
Experimental endpoint: cAMP EC50, Batch 3 (pM)
Write down the numeric answer in pM and omit the unit.

Some binders with known cAMP EC50, Batch 3 results, for comparison:
IP280 (Fc fusion) YSEGTFTSDYSKLLEEEAVRLFIEWLVKGGPSSGAPPPSGGGGGSGGGGSGGGGSGGGGSATHTCPPC	80
IP243 (Fc fusion) YSEGTFTSDYSKLLEEEAQRLFIEWLVKGPAAAGGSGSTASSGSGSATGGGGAATHTCPPCPAPEF	170
IP296 (Fc fusion) YSEGTFTSDYSKLLEEEAVRCFIEWLVKGGPSSGAPPCSGGGGGGGGGGGGGGGGGGGGGGGGACPPC	370

// moving on: another record for cAMP EC50, Batch 3
cAMP EC50, Batch 3 reported for this binder IP295 (Fc fusion) YSEGTFTSDYSKLLEEEAVRLFIEWLLAGGPSSGAPPPSGGGGGSGGGGSGGGGSGGGGSATHTCPPC : 150
